B1: TPR t1 (parent)
chain: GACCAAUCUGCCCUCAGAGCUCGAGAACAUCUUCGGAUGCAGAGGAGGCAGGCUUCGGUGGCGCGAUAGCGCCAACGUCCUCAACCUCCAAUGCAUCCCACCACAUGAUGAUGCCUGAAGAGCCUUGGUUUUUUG

# Variants of: B1
# measurementNotes: polymerase ribozyme fitness, log enrichment relative to wild type (log ratio); higher = more active; in vitro selection for triplet polymerase activity
attributeMeasured: polymerase ribozyme fitness (log ratio)
Number, no unit, nothing else.

// worked examples, polymerase ribozyme fitness (log ratio) included
[[record]]
variantdescription = "C13U C28G G63U C98U C115U"
attributemeasured = "polymerase ribozyme fitness (log ratio)"
readoutvalue = -5.89

[[record]]
variantdescription = "G110A U130C"
attributemeasured = "polymerase ribozyme fitness (log ratio)"
readoutvalue = -0.539

[[record]]
variantdescription = "C4G C11G G39A"
attributemeasured = "polymerase ribozyme fitness (log ratio)"
readoutvalue = -1.72


-- ask Tell me its polymerase ribozyme fitness (log ratio) given A41G G117U as the entry.
-- reply -2.99

-- ask Tell me its polymerase ribozyme fitness (log ratio) given C89G A111C as the entry.
-- reply -2.08

-- ask Tell me its polymerase ribozyme fitness (log ratio) given C53U U59C as the entry.
-- reply -0.508

-- ask Tell me its polymerase ribozyme fitness (log ratio) given G57A C115G as the entry.
-- reply -2.25

-- ask Tell me its polymerase ribozyme fitness (log ratio) given U7A G39A G42C G45C A83U G110A as the entry.
-- reply -5.83

-- ask Tell me its polymerase ribozyme fitness (log ratio) given U78A C115G U116G as the entry.
-- reply -3.11

-- ask Tell me its polymerase ribozyme fitness (log ratio) given G47U G93U as the entry.
-- reply -2.97

-- ask Tell me its polymerase ribozyme fitness (log ratio) given C4A C13U C40A G52A C104U as the entry.
-- reply -2.23

meta.source: the RNAGym collection of RNA variant scans (doi:10.1073/pnas.2313332121)
